Biological target: SARS-CoV-2 spike ectodomain (S-ecto), Wuhan-hu-1, 2P (SARS-CoV-2, Wuhan-hu-1, UniProt P0DTC2, 2P mutation at residues 986 and 987, biotinylated (EZ-link NHS-sulfo-LC-Biotin) for the BLI assay)
Experiment: BLI
Conditions: both partners purified
Listing of recorded pKd by entry.
Reminder that pKd means the negative base-10 logarithm of the concentration expressed in mol/L.

Some solved cases for reference:
>>> test_result("humanized SW186 H4L3 (antibody, V domains shown) VH: QVQLVQSGAEVKKPGSSVKVSCKASGVAFSSYWMNWVKQAPGQGLEWIGQIYPGDGDTNYNGKFKGKATITADKSTSTAYMELSSLRSEDTAVYFCARGFIATVEETMDYWGQGTLVTVSS VL: DIQMTQSPSSLSASVGDRVTITCRASQDISNYLNWYQQKPGKAPKLLIYYTSRLHSGVPSRFSGSGSGTDYTLTISSLQPEDFATYFCQQSHTLPWTFGGGTKLEIK")
8.62
>>> test_result("humanized SW186 H3L2 (antibody, V domains shown) VH: QVQLVQSGAEVKKPGSSVKVSCKASGVAFSSYWMNWVRQAPGQGLEWIGQIYPGDGDTNYNGKFKGRATITADKSTSTAYMELSSLRSEDTAVYFCARGFIATVEETMDYWGQGTLVTVSS VL: DIQMTQSPSSLSASVGDRVTITCRASQDISNYLNWYQQKPGKAPKLLIYYTSRLHSGVPSRFSGSGSGTDFTLTISSLQPEDFATYFCQQSHTLPWTFGGGTKLEIK")
8.22
>>> test_result("humanized SW186 H1L3 (antibody, V domains shown) VH: QVQLVQSGAEVKKPGSSVKVSCKASGVAFSSYWMNWVRQAPGQGLEWMGQIYPGDGDTNYNGKFKGRVTITADKSTSTAYMELSSLRSEDTAVYYCARGFIATVEETMDYWGQGTLVTVSS VL: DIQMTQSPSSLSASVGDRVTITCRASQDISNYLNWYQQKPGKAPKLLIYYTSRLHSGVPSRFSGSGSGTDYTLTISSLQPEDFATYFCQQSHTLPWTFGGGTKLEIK")
8.36

# pKd (binder: humanized SW186 H2L3 (antibody, V domains shown) VH: QVQLVQSGAEVKKPGSSVKVSCKASGVAFSSYWMNWVRQAPGQGLEWIGQIYPGDGDTNYNGKFKGRVTITADKSTSTAYMELSSLRSEDTAVYFCARGFIATVEETMDYWGQGTLVTVSS VL: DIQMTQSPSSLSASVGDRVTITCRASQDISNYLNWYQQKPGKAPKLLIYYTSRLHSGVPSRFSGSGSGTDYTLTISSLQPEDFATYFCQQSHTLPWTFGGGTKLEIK ) is 8.43

Please fill in: pKd reported for humanized SW186 H3L1 (antibody, V domains shown) VH: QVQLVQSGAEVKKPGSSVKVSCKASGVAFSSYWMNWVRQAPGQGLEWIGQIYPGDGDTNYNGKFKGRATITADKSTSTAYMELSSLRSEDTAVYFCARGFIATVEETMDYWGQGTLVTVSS VL: DIQMTQSPSSLSASVGDRVTITCRASQDISNYLNWYQQKPGKAPKLLIYYTSRLHSGVPSRFSGSGSGTDFTLTISSLQPEDFATYYCQQSHTLPWTFGGGTKLEIK = 8.17

// pKd lookup, binder = humanized SW186 H1L1 (antibody, V domains shown) VH: QVQLVQSGAEVKKPGSSVKVSCKASGVAFSSYWMNWVRQAPGQGLEWMGQIYPGDGDTNYNGKFKGRVTITADKSTSTAYMELSSLRSEDTAVYYCARGFIATVEETMDYWGQGTLVTVSS VL: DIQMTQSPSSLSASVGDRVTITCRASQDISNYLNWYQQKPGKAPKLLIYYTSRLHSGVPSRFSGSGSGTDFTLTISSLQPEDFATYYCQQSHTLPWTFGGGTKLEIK , result: 8.00

Short answer for humanized SW186 H2L4 (antibody, V domains shown) VH: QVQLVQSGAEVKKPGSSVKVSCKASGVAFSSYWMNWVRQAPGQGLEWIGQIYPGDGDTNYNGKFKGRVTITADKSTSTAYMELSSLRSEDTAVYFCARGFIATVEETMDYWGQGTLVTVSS VL: DIQMTQSPSSLSASVGDRVTITCRASQDISNYLNWYQQKPGKTVKLLIYYTSRLHSGVPSRFSGSGSGTDYTLTISSLQPEDFATYFCQQSHTLPWTFGGGTKLEIK : pKd was 8.50

Please fill in: pKd reported for humanized SW186 H4L4 (antibody, V domains shown) VH: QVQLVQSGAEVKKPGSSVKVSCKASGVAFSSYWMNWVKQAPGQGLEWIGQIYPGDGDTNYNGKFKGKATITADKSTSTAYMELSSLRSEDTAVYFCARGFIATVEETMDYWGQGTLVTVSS VL: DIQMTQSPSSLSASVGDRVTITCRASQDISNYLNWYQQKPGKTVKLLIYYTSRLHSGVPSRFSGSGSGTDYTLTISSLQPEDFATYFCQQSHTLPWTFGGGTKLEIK = 8.80

Item: humanized SW186 H1L4 (antibody, V domains shown) VH: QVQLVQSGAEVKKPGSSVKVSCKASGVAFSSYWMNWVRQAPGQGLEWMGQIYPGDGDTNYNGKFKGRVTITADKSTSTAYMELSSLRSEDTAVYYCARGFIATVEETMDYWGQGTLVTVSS VL: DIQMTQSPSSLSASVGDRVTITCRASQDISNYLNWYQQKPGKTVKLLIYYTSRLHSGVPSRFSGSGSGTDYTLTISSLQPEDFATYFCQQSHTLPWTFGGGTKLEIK | pKd: 8.30

Reference for the values: paper PMC9407945
